The measurements presented in this section are drawn from patent US20230374147A1.

- System Name: T1, His-tagged cynomolgous macaque BCMA (Acro Biosystems, BCA-C52H7) (cynomolgus macaque, UniProt Q02223 1-54 (human entry))
- T1 construct: Bought protein; also called cyno BCMA; CyBCMA; not shown: His tag
- Assay Details: BLI, His-tagged cynomolgus BCMA on HIS1K tip
Value Kind: Cyno BCMA response
Simply state the number, no unit and no words.

Lookup: Report Cyno BCMA response, nothing else, for this binder: 539-SP5-D7 hIgG1 (antibody, V domains shown, Human-mouse chimeric antibody, human IgG1 format, lambda light chain; also called [4]) VH: EVMLVDSGGNLVKPGGSLKLSCAASGFTFSNYVISWVRQTPEKRLEWVATISTVGTNTYYPDSVRGRFTISRDNAENTLYLQMSSLRSEDTAIYYCSRHKYGYDDPSYAMDYWGQGTSVTVSS VL: QLVLTQSSSASFSLGASAKLTCTLSSQHSTYTIEWYQQQPLKPPKYVMELKKDGSHSTGDGIPDRFSGSSSGADRYLSISNIQAEDEAIYICGVGDTVKEQFVYVFGGGTKVTVLG
Found: 0.265

Lookup: Report Cyno BCMA response, nothing else, for this binder: 552-LN2-F8 hIgG1 (antibody, V domains shown, Human-mouse chimeric antibody, human IgG1 format; also called [9]) VH: QIQLVQSGPELKKPGETVKISCKASGYTFTDYTMYWVKQAPGKGLKWMGWINTETGEPTYADDFKGRFVFSLETSANTAYLQINNLKNEDTATYFCAISYYYGMDYWGQGTSVTVTS VL: DIILTQSPASLAVSLGQRATITCRASKSVSTSGYNFVYWYQQKPGQPPKLLIYLASNLESGVPARFSGSGSGTDFTLNIHPVEEEDAATYYCQHSRELPRTFGGGTKLEIKR
Found: 1.58

Lookup: Report Cyno BCMA response, nothing else, for this binder: 538-SP5-B10 hIgG1 (antibody, V domains shown, Human-mouse chimeric antibody, human IgG1 format) VH: EVQLQQSGPELVKPGASVKMSCKASGYTFTSYVMHWVKQKPGRGLEWIAYILPFNDVTKYNEKFKGKATLTSDKSSNTAYMELSSLTSEDSAVYYCARWEWDDGYFDYWGQGTTLTVSS VL: DAVMTQTPLSLPVSLGDQASISCRSSQSLENSNGNTYLNWYLQKPGQSPQLLIYRVSNRFSGVLDRFSGSGSGTDFTLKISRVEAEDLGVYFCLQVSHVPFTFGAGTKLELKR
Found: 0.895
